- assay.target: RIPK1 (Homo sapiens (Human), UniProt Q13546)
- Sequence (Q13546 whole entry, species assumed): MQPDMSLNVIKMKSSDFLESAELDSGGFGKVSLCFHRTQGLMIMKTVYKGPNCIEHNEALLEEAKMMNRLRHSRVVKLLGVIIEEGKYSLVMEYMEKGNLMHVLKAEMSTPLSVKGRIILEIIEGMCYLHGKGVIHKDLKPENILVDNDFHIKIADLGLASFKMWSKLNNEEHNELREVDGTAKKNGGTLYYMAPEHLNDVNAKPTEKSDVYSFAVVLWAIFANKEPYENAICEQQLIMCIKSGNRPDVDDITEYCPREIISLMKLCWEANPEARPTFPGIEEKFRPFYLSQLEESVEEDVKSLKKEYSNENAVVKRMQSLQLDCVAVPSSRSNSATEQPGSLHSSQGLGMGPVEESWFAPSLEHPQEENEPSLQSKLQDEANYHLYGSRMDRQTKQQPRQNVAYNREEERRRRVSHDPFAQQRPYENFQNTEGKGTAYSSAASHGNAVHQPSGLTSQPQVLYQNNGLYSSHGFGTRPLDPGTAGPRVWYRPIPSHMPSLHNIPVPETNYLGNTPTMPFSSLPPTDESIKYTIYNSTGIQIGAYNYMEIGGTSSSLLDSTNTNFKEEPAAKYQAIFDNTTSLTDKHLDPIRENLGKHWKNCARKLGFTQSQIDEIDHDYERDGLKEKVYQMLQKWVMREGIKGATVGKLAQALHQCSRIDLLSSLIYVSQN
- assay: biochemical
- Format: biochemical
- condition.label: RIPK1 enzyme 31 ng/well, 30° C. for 30 minutes, luminescence; read-out: RIPK1 ADP-Glo Kinase (IC50)
Can you tell me IC50 for the items I'm about to list?
Give just the numeric value; nM need not be written.

Record O=C(NC1Cc2ccccc2-n2ccnc21)c1cc(Oc2ccccc2)ccn1 (racemic) [Compound I-67] has RIPK1 (Homo sapiens (Human), UniProt Q13546) IC50 equal to 11400

# lookup: O=C(N[C@H]1CCc2ccc(N3CC4(CCOCC4)C3)cc2-n2ccnc21)c1n[nH]c(Cc2ccccc2)n1 [Compound I-86] on RIPK1 (Homo sapiens (Human), UniProt Q13546), IC50 = 67

Tested on RIPK1 (Homo sapiens (Human), UniProt Q13546): O=C(N[C@H]1CS(=O)(=O)c2ccccc2-n2nnnc21)c1cc(Cc2ccccc2)on1 [Compound I-25] . Observed IC50: 510

IC50 on RIPK1 (Homo sapiens (Human), UniProt Q13546) for O=C(N[C@H]1CSc2ccccc2-n2c1noc2=O)c1n[nH]c(Cc2ccccc2)n1 [Compound I-33] is 12.5

Kindly note: RIPK1 (Homo sapiens (Human), UniProt Q13546), O=C(NC1COc2ccccc2-n2cccc21)c1n[nH]c(Cc2ccc(F)cc2)n1 (racemic) [Compound I-37] , IC50 value reported: 1140

Measured IC50 (RIPK1 (Homo sapiens (Human), UniProt Q13546)), entry O=C(N[C@H]1CSc2ccccc2-n2nnnc21)c1ncn(Cc2ccc(F)cc2)n1 [Compound I-22] : 32.1

Entry O=C(NC1CCc2ccccc2-n2c(Cl)cnc21)c1cc(Cc2ccccc2)on1 (racemic) [Compound I-71] , RIPK1 (Homo sapiens (Human), UniProt Q13546) data, IC50 value: 580

Entry O=C(NC1CCc2ccc(N3CCC4(CCOCC4)CC3)cc2-n2ccnc21)c1ncn(Cc2c(Cl)cccc2Cl)n1 (racemic) [Compound I-61] , tested on RIPK1 (Homo sapiens (Human), UniProt Q13546), has a reported IC50 of 86.2

Result for O=C(NC1CCc2ccccc2-n2cnnc21)c1cc(Oc2ccccc2)ccn1 (racemic) [Compound I-59] , tested on RIPK1 (Homo sapiens (Human), UniProt Q13546), IC50: 118

# value of IC50, RIPK1 (Homo sapiens (Human), UniProt Q13546), item O=C(NC1CCc2ccc(CN3CCN(c4ccncc4)CC3)cc2-n2ccnc21)c1n[nH]c(Cc2ccccc2)n1 (racemic) [Compound I-39] = 1460

Param item: O=C(NC1COc2ccccc2-n2cccc21)c1ncn(Cc2c(Cl)cccc2Cl)n1 (racemic) [Compound I-27] ; param system: RIPK1 (Homo sapiens (Human), UniProt Q13546); output IC50: 68.4

Per the reported RIPK1 (Homo sapiens (Human), UniProt Q13546) data, O=C(NC1CSc2cccn2-n2ccnc21)c1n[nH]c(Cc2ccccc2)n1 (racemic) [Compound I-45] has IC50 of 31.2

Kindly note: RIPK1 (Homo sapiens (Human), UniProt Q13546), O=C(NC1CCc2ccccc2-n2ccnc21)c1nccc(-c2ccccc2)n1 (racemic) [Compound I-2] , IC50 value reported: 6230

The value of IC50 recorded for CC(C)(O)CCc1ccc2c(c1)-n1ccnc1C(NC(=O)c1n[nH]c(Cc3ccccc3)n1)CC2 (racemic) [Compound I-68] when tested on RIPK1 (Homo sapiens (Human), UniProt Q13546) reads 118

Record O=C(NC1CCc2ccccc2-n2c1noc2=O)c1n[nH]c(Cc2ccccc2)n1 (racemic) [Compound I-48] ; system RIPK1 (Homo sapiens (Human), UniProt Q13546); IC50 = 53.4

Where these numbers come from: patent US11667643B2
